B1: KLHL14 (parent)
chain: CAVLDDSIYLVGGYSWSMGAYKSS

# Variants of: B1
# Method Summary: protein stability index of a GFP-peptide fusion (GPS, HEK-293T) (PSI 1-6); higher = more stable;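 also: lentivirally expressed fusions sorted by FACS into six bins by GFP to DsRed ratio, PSI derived from sequencing read proportions per bin multiplied by bin number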
# Condition Label: c terminus: a fixed tail appended
Measured Parameter: protein stability index

Exercise: Given the variant `I8D` , what is its reported protein stability index?
Key: 2.22

Exercise: I would be grateful if you could share the reported protein stability index for `G13W` .
Key: 3.56

Exercise: Reported protein stability index for `I8W` : what is it?
Key: 1.8

Exercise: Which protein stability index value is on record for `L4K` ?
Key: 2.18

Exercise: protein stability index lookup needed for `D6H` , thanks.
Key: 2.9

Exercise: // lookup protein stability index for `V11A`
Key: 1.94

Exercise: Return reported protein stability index; argument: `S15Y`
Key: 1.87

Exercise: What does the record list as protein stability index for `L4Y` ?
Key: 2.19

Exercise: Consider the variant shown here: `S17M` What is its recorded protein stability index?
Key: 1.49

Exercise: Which protein stability index value is on record for `V3N` ?
Key: 2.57

Exercise: Which protein stability index value belongs to `D5K` ?
Key: 3.02

Exercise: Query (variant): `V3P` ; field requested: protein stability index
Key: 2.58

Exercise: Entry under review: `Y9G` . Reported protein stability index?
Key: 1.28

Exercise: Bench note: what protein stability index did `A20F` show?
Key: 2.88

Exercise: So what does the record say about protein stability index for `V11T` ?
Key: 1.83

Exercise: Requested field: protein stability index. Item: `A2M`
Key: 3.27

Exercise: Give its protein stability index value. Item: `D6Y`
Key: 1.86

Exercise: Could you share which protein stability index value was measured for `S15H` ?
Key: 1.65

Exercise: Report protein stability index for `W16T` please.
Key: 1.74

Exercise: Which protein stability index is listed for `L10D` ?
Key: 1.94

Exercise: Form field: reported protein stability index of `Y21T`
Key: 1.24

Exercise: So what's the measured protein stability index for this one? `G12H`
Key: 2.92

Exercise: protein stability index lookup needed for `G13F` , thanks.
Key: 2.97

Exercise: Need protein stability index of `G19K` , thanks.
Key: 2.23
